In this section, each of the sequences is paired with its reported PBM E-score.
Molecular target: Pdr3 (UniProt P33200)
Sequence: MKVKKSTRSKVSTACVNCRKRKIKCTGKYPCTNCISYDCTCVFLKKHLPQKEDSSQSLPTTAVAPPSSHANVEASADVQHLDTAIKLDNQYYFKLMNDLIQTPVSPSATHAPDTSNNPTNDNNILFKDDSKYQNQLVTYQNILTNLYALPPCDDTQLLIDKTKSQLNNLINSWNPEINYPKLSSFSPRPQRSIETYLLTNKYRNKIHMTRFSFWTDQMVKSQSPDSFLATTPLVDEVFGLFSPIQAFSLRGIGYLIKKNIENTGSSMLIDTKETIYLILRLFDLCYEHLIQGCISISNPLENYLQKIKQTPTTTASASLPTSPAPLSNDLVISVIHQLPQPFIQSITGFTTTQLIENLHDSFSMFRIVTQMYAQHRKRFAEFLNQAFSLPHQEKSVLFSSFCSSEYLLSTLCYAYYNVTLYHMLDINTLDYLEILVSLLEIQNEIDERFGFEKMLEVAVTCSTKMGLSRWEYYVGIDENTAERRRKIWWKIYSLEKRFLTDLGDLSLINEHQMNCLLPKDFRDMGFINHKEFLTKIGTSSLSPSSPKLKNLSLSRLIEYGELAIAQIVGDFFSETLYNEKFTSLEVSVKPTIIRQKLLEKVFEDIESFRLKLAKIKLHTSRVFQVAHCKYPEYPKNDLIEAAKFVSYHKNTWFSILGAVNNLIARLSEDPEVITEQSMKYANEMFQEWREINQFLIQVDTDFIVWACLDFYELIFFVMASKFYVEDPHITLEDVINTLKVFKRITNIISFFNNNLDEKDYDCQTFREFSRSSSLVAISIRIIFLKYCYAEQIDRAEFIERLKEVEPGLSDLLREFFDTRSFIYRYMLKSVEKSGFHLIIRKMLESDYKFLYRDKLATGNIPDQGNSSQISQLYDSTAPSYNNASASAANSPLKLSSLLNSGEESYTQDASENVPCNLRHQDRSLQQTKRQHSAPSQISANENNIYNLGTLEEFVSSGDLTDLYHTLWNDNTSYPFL
Experiment: PBM E-score (8-mer binding enrichment) (E-score (-0.5 to 0.5)); higher = stronger / more preferred TF binding
Conditions: protein concentration: 200 nM; construct: GST-full length
Whole data set: some 33,000 sequences, median “E-score (-0.5 to 0.5)” near -0.035, cut for the highest 2% near 0.35. Many of the other results were omitted from the sample, so the highest values are more common in it than they were.
Answer as a number with no unit attached.

In the examples that follow, each entry is paired with its recorded PBM E-score.
INSERT INTO assay_data (biopolymer_sequence, system_name, recorded_metric, recorded_measurement) VALUES
  ('ACTCCGTA', 'Pdr3 (UniProt P33200)', 'PBM E-score', 0.13),
  ('GTTCCGTA', 'Pdr3 (UniProt P33200)', 'PBM E-score', 0.471),
  ('ATTCCGTA', 'Pdr3 (UniProt P33200)', 'PBM E-score', 0.417),
  ('ACAGTGAC', 'Pdr3 (UniProt P33200)', 'PBM E-score', 0.0756),
  ('CCCATCCA', 'Pdr3 (UniProt P33200)', 'PBM E-score', 0.00501);

Given `CCTCCGTA` , respond with its PBM E-score. 0.222

Using known records, supply PBM E-score for `ATAACGGC` 0.135

Name the recorded PBM E-score of the sequence listed here: `AGACGGGC` 0.0159
